- tgt: T1, human LAP-TGFB1 Fc fusion (human)
- T1 construct: also called human LAP-TGFβ1-Fc; human LAP-TGFβ-Fc isoform 1
- runDescription: SPR pH 6.0, antigen captured on Fab 54BLH
observable: Fab/mAb KD Ratio

| binder | numericReadout |
| --- | --- |
| 06BLM (antibody, human IgG1, L234A L235A, V domains shown, IgG1 L234A L235A D265S/kappa; also called 69BLH; 42BMD) VH: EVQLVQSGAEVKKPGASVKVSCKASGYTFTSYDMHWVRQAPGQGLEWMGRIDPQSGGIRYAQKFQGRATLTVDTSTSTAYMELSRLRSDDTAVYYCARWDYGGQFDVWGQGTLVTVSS VL: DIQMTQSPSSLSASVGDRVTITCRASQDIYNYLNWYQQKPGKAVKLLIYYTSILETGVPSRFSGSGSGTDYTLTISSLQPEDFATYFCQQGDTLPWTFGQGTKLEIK | 1.9 |
| 16BLM (antibody, human IgG1, kappa, L234A L235A, V domains shown, IgG1 L234A L235A D265S/kappa; also called 79BLH; 52BMD) VH: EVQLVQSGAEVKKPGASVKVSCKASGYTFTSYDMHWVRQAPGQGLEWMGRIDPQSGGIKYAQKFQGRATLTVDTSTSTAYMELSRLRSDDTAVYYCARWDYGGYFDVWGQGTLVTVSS VL: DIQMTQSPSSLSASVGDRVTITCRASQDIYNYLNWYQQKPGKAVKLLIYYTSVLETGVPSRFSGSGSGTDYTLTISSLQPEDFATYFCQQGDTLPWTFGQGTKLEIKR | 1.6 |
| 11BLM (antibody, human IgG1, kappa, L234A L235A, V domains shown, IgG1 L234A L235A D265S/kappa; also called 74BLH; 47BMD) VH: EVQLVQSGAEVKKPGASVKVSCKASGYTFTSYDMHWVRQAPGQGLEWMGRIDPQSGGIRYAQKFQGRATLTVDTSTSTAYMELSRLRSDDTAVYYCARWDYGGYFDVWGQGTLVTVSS VL: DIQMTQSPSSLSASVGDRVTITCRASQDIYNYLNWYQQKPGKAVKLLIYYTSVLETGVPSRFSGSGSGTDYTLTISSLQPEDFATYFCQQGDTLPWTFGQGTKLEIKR | 1.3 |
| 12BLM (antibody, human IgG1, kappa, L234A L235A, V domains shown, IgG1 L234A L235A D265S/kappa; also called 75BLH; 48BMD) VH: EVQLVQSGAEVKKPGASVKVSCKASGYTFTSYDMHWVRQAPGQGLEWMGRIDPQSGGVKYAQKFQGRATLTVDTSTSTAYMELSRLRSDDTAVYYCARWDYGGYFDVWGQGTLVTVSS VL: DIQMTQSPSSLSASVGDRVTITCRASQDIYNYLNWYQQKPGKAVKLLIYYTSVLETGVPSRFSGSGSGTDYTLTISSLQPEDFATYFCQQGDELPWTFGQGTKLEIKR | 2.2 |
| 07BLM (antibody, human IgG1, kappa, L234A L235A, V domains shown, IgG1 L234A L235A D265S/kappa; also called 70BLH; 43BMD) VH: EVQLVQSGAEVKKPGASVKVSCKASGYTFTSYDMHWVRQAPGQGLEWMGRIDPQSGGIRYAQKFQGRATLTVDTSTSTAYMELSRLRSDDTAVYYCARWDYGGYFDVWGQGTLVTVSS VL: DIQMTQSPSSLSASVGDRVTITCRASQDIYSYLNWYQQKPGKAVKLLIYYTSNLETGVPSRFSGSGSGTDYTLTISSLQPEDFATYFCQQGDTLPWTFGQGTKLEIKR | 2.2 |

Hello, the source for this data is patent US20230272056A1, in case you need it.
